These entries and their values trace back to ChEMBL document CHEMBL4261509.

- testedSystem: Thiamine transporter ThiT (Lactococcus lactis subsp. cremoris (strain MG1363), UniProt A2RI47)
- Sequence (A2RI47 whole entry): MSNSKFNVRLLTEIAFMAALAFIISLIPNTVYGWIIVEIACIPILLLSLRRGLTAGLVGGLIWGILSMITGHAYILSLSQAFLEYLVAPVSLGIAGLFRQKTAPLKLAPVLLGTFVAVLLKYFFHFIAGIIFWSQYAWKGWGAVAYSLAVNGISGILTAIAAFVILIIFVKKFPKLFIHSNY
- testProtocol: Binding affinity to wild-type Lactococcus lactis MG1363 N-terminal His8-tagged ThiT expressed in Lactococcus lactis NZ9000 incubated for 10 secs measured over 15 secs by fluorescence spectrophotometric method
readoutType: Kd (nM)
Reply with just the number (in nM).

Item Cc1ncc(Cc2csc(CCOC(=O)c3c[nH]c4ccccc34)c2C)c(N)n1 has what recorded Kd? 20.1

Item Cc1ncc(Cc2cccc(CO)c2)c(N)n1 has what recorded Kd? 528

Item Cc1ncc(C[n+]2csc(CCO)c2C)c(N)n1 [THIAMINE ION] has what recorded Kd? 0.122
